Assay: in vivo
Conditions: rat, in vivo, po, 5 mg/kg
measured-quantity: Cmax
Please append the unit to your numeric answer.

Record summary for Cn1cc(C#Cc2cc3c4c(c2)CCN4C(=O)C(NC(=O)c2ncn(Cc4cc(F)ccc4F)n2)CC3)cn1 (stereo not drawn) : reported Cmax = 4660 ng/mL

Record summary for C#Cc1cc2c3c(c1)CCN3C(=O)C(NC(=O)c1ncn(Cc3c(F)cccc3F)n1)CC2 (stereo not drawn) : reported Cmax = 1370 ng/mL

Record summary for Cn1cc(C#Cc2cc3c4c(c2)CCN4C(=O)C(NC(=O)c2ncn(Cc4ccc(F)c(F)c4)n2)CC3)cn1 (stereo not drawn) : reported Cmax = 7330 ng/mL

Record summary for O=C(NC1CCc2cc(C#Cc3cnn(C(F)F)c3)cc3c2N(CC3)C1=O)c1ncn(Cc2cc(F)ccc2F)n1 (stereo not drawn) : reported Cmax = 1480 ng/mL

Record summary for O=C(NC1CCc2cc(C#Cc3cnn(C(F)F)c3)cc3c2N(CC3)C1=O)c1ncn(Cc2ccccc2F)n1 (stereo not drawn) : reported Cmax = 1280 ng/mL

Record summary for Cn1cc(C#Cc2cc3c4c(c2)CCN4C(=O)C(NC(=O)c2ncn(Cc4c(F)cccc4F)n2)CC3)cn1 (stereo not drawn) : reported Cmax = 4100 ng/mL

====

Assay: in vivo
Settings: rat, in vivo, iv, 0.5 mg/kg
Binary classification by AUC(0-t), with 700 ng·h/mL as an inclusive lower bound for yes; all other cases are no.

Qu. Can O=C(NC1CCc2cc(C#Cc3cnn(C(F)F)c3)cc3c2N(CC3)C1=O)c1ncn(Cc2ccccc2F)n1 (stereo not drawn) be said to have AUC(0-t) at or above 700 ng·h/mL?
Ans. no

Qu. Can C#Cc1cc2c3c(c1)CCN3C(=O)C(NC(=O)c1ncn(Cc3c(F)cccc3F)n1)CC2 (stereo not drawn) be said to have AUC(0-t) at or above 700 ng·h/mL?
Ans. no

Qu. Can Cn1cc(C#Cc2cc3c4c(c2)CCN4C(=O)C(NC(=O)c2ncn(Cc4c(F)cccc4F)n2)CC3)cn1 (stereo not drawn) be said to have AUC(0-t) at or above 700 ng·h/mL?
Ans. yes

Qu. Can Cn1cc(C#Cc2cc3c4c(c2)CCN4C(=O)C(NC(=O)c2ncn(Cc4cc(F)ccc4F)n2)CC3)cn1 (stereo not drawn) be said to have AUC(0-t) at or above 700 ng·h/mL?
Ans. yes

Qu. Can Cn1cc(C#Cc2cc3c4c(c2)CCN4C(=O)C(NC(=O)c2ncn(Cc4ccc(F)c(F)c4)n2)CC3)cn1 (stereo not drawn) be said to have AUC(0-t) at or above 700 ng·h/mL?
Ans. yes

====

Test: in vivo
Settings: rat, in vivo, po, 5 mg/kg
Under this convention, 1 denotes CL/F strictly below 4 mL/min/kg and -1 denotes CL/F at or above 4 mL/min/kg.

Qu. CL/F strictly < 4 mL/min/kg for this compound? O=C(NC1CCc2cc(C#Cc3cnn(C(F)F)c3)cc3c2N(CC3)C1=O)c1ncn(Cc2cc(F)ccc2F)n1 (stereo not drawn) [III-19]
Ans. -1

Qu. CL/F strictly < 4 mL/min/kg for this compound? Cn1cc(C#Cc2cc3c4c(c2)CCN4C(=O)C(NC(=O)c2ncn(Cc4c(F)cccc4F)n2)CC3)cn1 (stereo not drawn) [III-1]
Ans. 1

Qu. CL/F strictly < 4 mL/min/kg for this compound? C#Cc1cc2c3c(c1)CCN3C(=O)C(NC(=O)c1ncn(Cc3c(F)cccc3F)n1)CC2 (stereo not drawn) [III-26]
Ans. -1

Qu. CL/F strictly < 4 mL/min/kg for this compound? Cn1cc(C#Cc2cc3c4c(c2)CCN4C(=O)C(NC(=O)c2ncn(Cc4ccc(F)c(F)c4)n2)CC3)cn1 (stereo not drawn) [III-12]
Ans. 1

Qu. CL/F strictly < 4 mL/min/kg for this compound? Cn1cc(C#Cc2cc3c4c(c2)CCN4C(=O)C(NC(=O)c2ncn(Cc4cc(F)ccc4F)n2)CC3)cn1 (stereo not drawn) [III-10]
Ans. 1

Qu. CL/F strictly < 4 mL/min/kg for this compound? O=C(NC1CCc2cc(C#Cc3cnn(C(F)F)c3)cc3c2N(CC3)C1=O)c1ncn(Cc2ccccc2F)n1 (stereo not drawn) [III-21]
Ans. -1
